Reference for the values: patent US4876281A

# Tested on: Aspergillus niger
# assay_summary: 95% growth inhibitory concentration, Aspergillus niger
# Format: cell-based, Aspergillus niger IFO 9455
# condition_label: IFO9455, 72 h; Aspergillus niger IFO 9455; liquid Sabouraud's medium, 37° C., 3 days, dry weight; up to 5% growth rate; mean value; read-out: 95% Growth inhibitory concentration, Aspergillus niger
# Experimental: Strains for use in test: Candida albicans, IFO 1594 Aspergillus niger, IFO 9455 Culture medium: Liquid Sabouraud's medium (maltose 40 g, proteose peptone 10 g, distilled water 1000 ml) Positive control: amphotericin B (Sigma) 5-fluorocytosine (Wako Junyaku, Japan) A sample was diluted with culture medium to vary concentrations and poured into test tubes each to contain 5 ml, and a platinum loop of spores was inoculated in each tube. […] The growth rate was determined by the following equation [formula] […]
reported_endpoint: IC95 (µg/mL)

>>> measured_result("Nc1nc(=O)[nH]cc1F [5-fluorocytosine, reference compound]")
80
>>> measured_result("CCOC(=O)CCCSSC=CC[S+]([O-])CCCC(=O)OCC (stereo not shown) [Compound 10]")
80.4
>>> measured_result("C=CCSSC=CCS(=O)(=O)CC=C [Compound 1]")
28.5
>>> measured_result("C=CCSSC=CC[S+](C)[O-] (stereo not shown) [Compound 5]")
57.3
>>> measured_result("C=CC[S+]([O-])CC=CSSC (stereo not shown) [Compound 17]")
49.1
>>> measured_result("C=CCS(=O)(=O)CC=CSSCc1ccccc1 [Compound 16]")
42.2
>>> measured_result("C=CC[S+]([O-])SC=CCS(=O)(=O)CC=C (stereo not shown) [Compound 7]")
30.8
